Tested on: Spodoptera frugiperda
MEASUREMENT NOTES: Spodoptera frugiperda - spray test
Type: in vivo
MEASUREMENT CONDITIONS: application rate 100 g/ha; caterpillars on maize leaf discs; after 7 days
PROPERTY LABEL: efficacy (%)
Your answer is read as %, so omit the unit and give the number.

# annotated cases, reported efficacy shown
N#CC1(NC(=O)c2cc(-c3cnn(-c4c(Cl)cc(C(F)(F)F)cc4[N+](=O)[O-])c3)ccc2Cl)CC1 [I-T3-169]
83
Cc1cc(C(F)(C(F)(F)F)C(F)(F)F)cc(C(F)(F)F)c1-n1cc(-c2cnc(Cl)c(C(=O)NCC3(C#N)CC3)c2)cn1 [I-T3-197]
100
N#CC1(NC(=O)c2cc(-c3cnn(-c4c(Br)cc(C(F)(C(F)(F)F)C(F)(F)F)cc4C(F)(F)F)c3)cnc2Cl)CC1 [I-T3-165]
100
CCSc1cc(C(F)(F)F)cc(C#N)c1-n1cc(-c2ccc(Cl)c(C(=O)NC3(C#N)CC3)c2)cn1 [I-T3-177]
83
Cc1cc(C(F)(C(F)(F)F)C(F)(F)F)cc(C(F)(F)F)c1-n1cc(-c2ccc(Cl)c(C(=O)NC3CSC3)c2)cn1 [I-T3-85]
100
Cc1ncc(-c2cnn(-c3c(Cl)cc(C(F)(C(F)(F)F)C(F)(F)F)cc3Cl)c2)cc1C(=O)N(C)C1CC1 [I-T3-133]
100

Could you now look at the following compound, please?
Asked: Item under review: Cc1cc(C(F)(C(F)(F)F)C(F)(F)F)cc(I)c1-n1cc(-c2ccc(Cl)c(C(=O)NC3CC3)c2)cn1 [I-T3-175] . Reported efficacy?
Given back: 100
